- method-summary: physchem
property-label: solubility

Query c1coc(-c2nn3c(Cn4cnc5ccccc54)nnc3s2)c1 [SRI 29365] yields solubility of < 400 µM

====

- method-summary: physchem
property-label: half-life

Value of measured half-life for the entry "c1coc(-c2nn3c(Cn4cnc5ccccc54)nnc3s2)c1" : > 60 h
